Recorded IC50 by entry
target: human Kv1.3 voltage-gated K+ channel (Homo sapiens, UniProt P22001); construct: host or cells: CHO-DUKX; test: cell-based; details: inhibition of thallium flux, CHO-DUKX cells with human Kv1.3; read-out: IC50
Sequence (P22001 whole entry): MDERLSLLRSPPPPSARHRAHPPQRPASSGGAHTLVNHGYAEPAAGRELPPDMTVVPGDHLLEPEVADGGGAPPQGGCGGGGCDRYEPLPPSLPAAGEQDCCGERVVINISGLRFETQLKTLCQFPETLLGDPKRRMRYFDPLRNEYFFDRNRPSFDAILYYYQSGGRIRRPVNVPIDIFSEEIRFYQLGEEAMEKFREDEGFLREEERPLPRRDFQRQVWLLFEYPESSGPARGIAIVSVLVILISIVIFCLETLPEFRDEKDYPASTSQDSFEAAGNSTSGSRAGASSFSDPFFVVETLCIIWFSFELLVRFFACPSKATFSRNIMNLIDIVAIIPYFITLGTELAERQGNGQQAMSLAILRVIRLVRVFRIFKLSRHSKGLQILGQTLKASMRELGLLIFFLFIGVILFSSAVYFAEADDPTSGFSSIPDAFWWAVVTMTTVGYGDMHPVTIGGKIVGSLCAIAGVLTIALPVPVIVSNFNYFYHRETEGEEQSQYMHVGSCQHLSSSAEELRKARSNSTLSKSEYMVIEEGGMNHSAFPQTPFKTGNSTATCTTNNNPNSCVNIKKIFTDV
Bridge positions count the residues as written; N and C are the ends.
State the answer as a number, implicitly in nM.

H-NMDMRCSASVECKQKCLKAIGSIFGKCMNKKCKCYPRRRTA-NH2 (disulfide 6-27, 12-32, 16-34) [Compound 23] : 0.055

For the next question, use this substance.
stdin: Send back human Kv1.3 voltage-gated K+ channel (Homo sapiens, UniProt P22001) IC50 of H-NMDMRCSASVECKQKCLKAIGSIFGKCMNKKCKCYPRHRRK-NH2 (disulfide 6-27, 12-32, 16-34) [Compound 24] only.
stdout: 0.073

###

target: Rat whole blood (Rattus norvegicus, UniProt P15384)
Sequence (P15384 whole entry): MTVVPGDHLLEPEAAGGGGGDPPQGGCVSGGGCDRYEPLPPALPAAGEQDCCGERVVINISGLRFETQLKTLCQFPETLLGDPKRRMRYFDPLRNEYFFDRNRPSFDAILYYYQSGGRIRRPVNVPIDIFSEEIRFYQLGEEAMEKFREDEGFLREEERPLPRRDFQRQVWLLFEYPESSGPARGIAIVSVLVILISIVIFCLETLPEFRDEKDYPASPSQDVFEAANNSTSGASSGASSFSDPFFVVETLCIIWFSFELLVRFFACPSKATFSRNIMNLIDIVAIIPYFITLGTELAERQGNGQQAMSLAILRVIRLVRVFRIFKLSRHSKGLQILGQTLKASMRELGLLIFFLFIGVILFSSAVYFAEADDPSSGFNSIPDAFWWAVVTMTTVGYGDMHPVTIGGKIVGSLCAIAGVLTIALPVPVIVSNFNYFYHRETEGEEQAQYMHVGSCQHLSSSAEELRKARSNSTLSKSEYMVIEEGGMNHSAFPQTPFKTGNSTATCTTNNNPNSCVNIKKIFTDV
Bridge positions count the residues as written; N and C are the ends.
METRIC NAME: IC50

stdin: State IC50 (Rat whole blood (Rattus norvegicus, UniProt P15384)) of H-NMDMRCSASVECKQKCLKAIGSIFGKCMNKKCKCYPRRRTA-NH2 (disulfide 6-27, 12-32, 16-34) [Compound 23] .
stdout: ≤ 1 nM

###

target: Kv1.1 (Homo sapiens, UniProt Q09470); construct: expressed in transfected cells; host or cells: Chinese Hamster Ovary (CHO); assay: cell-based; settings: CHO cells, whole-cell patch clamp; read-out: Potency IC50 (nM) Kv1.1
Sequence (Q09470 whole entry): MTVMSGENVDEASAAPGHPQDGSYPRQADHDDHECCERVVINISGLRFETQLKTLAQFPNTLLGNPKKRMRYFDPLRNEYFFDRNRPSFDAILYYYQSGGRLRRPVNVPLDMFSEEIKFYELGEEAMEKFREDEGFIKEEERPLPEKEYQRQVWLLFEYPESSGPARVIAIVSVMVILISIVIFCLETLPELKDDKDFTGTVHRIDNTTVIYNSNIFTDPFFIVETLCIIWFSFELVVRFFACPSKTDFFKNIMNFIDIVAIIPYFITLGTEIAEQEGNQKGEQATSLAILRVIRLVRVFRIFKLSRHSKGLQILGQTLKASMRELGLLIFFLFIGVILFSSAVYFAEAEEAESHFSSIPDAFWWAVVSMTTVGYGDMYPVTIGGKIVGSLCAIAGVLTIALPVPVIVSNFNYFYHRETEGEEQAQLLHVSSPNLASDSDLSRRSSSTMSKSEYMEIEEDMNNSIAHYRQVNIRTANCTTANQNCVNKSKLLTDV
Bridge positions count the residues as written; N and C are the ends.
METRIC NAME: IC50
In your response, the unit should come after the numeric value.

stdin: State its IC50 for this substance: H-NMDMRCSASVECKQKCLKAIGSIFGKCMNKKCKCYPRRRTA-NH2 (disulfide 6-27, 12-32, 16-34) [Compound 23]
stdout: 626 nM
